# SYSTEM_UNDER_TEST: human recombinant histamine H1 receptor (Homo sapiens)
# Construct: expressed in transfected cells; host or cells: CHO-K1
# Sequence (P35367 whole entry): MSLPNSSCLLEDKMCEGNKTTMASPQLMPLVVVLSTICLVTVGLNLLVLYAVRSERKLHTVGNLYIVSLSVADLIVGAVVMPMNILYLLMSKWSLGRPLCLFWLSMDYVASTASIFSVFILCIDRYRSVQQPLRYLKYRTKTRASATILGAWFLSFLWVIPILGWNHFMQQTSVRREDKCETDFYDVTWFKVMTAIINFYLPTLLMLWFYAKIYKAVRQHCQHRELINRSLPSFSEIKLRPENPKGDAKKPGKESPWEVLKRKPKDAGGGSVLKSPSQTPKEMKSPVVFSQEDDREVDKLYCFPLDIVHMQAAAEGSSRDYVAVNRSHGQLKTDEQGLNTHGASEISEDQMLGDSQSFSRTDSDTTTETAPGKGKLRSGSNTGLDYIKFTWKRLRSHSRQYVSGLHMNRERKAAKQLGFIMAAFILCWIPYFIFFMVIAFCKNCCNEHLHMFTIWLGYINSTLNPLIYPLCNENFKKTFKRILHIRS
# MEASUREMENT_DESCRIPTION: Histamine H1 radioligand binding ([3H]Pyrilamine)
# CONDITION_SUMMARY: compound at 1 μM; 1.2 nM [3H]Pyrilamine; read-out: Histamine Binding (1 μM) H1, percentage inhibition
Each entry below lists one item and its recorded inhibition at 1 µM value.

{"columns": ["MOLECULE", "UNITS", "inhibition at 1 µM"],
 "data": [
  ["Cc1cc2c3c(c1)c1c(n3CC(c3ccc(C)nc3)C2)CCN(C)C1 (stereo not drawn)", "%", 44],
  ["CN1CCc2c(c3cccc4c3n2CC(c2ccc(F)cc2)C4)C1 (stereo not drawn)", "%", 78],
  ["CN1CCc2c(c3cccc4c3n2CC(=O)N4Cc2ccncc2)C1", "%", 16],
  ["Cc1cc2c3c(c1)c1c(n3CCO2)CCN(C)C1", "%", 53],
  ["CN1CCc2c(c3cccc4c3n2CCO4)C1", "%", 31],
  ["O=C(CCCN1CCc2c(c3cccc4c3n2CCC4)C1)c1ccc(F)cc1", "%", 78],
  ["Cc1cc2c3c(c1)c1c(n3CC(c3ccccc3)O2)CCN(C)C1 (stereo not drawn)", "%", 96],
  ["Cc1cc2c3c(c1)c1c(n3C(c3ccccc3)C2)CCN(C)C1 (stereo not drawn)", "%", 101],
  ["CN1CCc2c(c3cccc4c3n2C(c2ccccc2)C(=O)N4)C1 (stereo not drawn)", "%", 46]
]}

====

Each entry below lists one item and its recorded inhibition at 1 µM value.
# SYSTEM_UNDER_TEST: human recombinant serotonin (5-Hydroxytryptamine) 5-HT2C receptor (Homo sapiens, UniProt P28335)
# Construct: expressed in transfected cells; host or cells: CHO-K1
# Sequence (P28335 33-458): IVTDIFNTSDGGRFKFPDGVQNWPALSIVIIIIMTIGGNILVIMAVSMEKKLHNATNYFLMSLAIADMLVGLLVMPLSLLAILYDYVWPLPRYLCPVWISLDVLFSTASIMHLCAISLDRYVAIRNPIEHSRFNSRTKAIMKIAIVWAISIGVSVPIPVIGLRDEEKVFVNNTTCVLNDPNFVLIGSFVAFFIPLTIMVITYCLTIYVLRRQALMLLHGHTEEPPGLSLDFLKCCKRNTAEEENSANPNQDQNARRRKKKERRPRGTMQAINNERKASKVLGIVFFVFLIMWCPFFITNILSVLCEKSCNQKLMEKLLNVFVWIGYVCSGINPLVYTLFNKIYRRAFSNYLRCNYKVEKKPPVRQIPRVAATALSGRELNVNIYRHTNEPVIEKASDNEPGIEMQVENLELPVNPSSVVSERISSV
# MEASUREMENT_DESCRIPTION: Serotonin 5-HT2C radioligand binding ([3H]Mesulergine)
# CONDITION_SUMMARY: compound at 1 μM; read-out: Serotonin (1 μM) 5-HT2C, percentage inhibition of ligand binding

{"columns": ["COMPOUND", "inhibition at 1 µM, %"],
 "data": [
  ["Cc1cc2c3c(c1)c1c(n3CC2c2ccc(F)cc2)CCN(C)C1 (stereo not shown)", 92],
  ["Cc1cc2c3c(c1)c1c(n3CC(c3ccc(C)nc3)C2)CCN(C)C1 (stereo not shown)", 19],
  ["Cc1cc2c3c(c1)c1c(n3CCO2)CCN(C)C1", 79],
  ["Cc1cc2c3c(c1)c1c(n3CC(c3ccc(F)cc3)C2)CCN(C)C1 (stereo not shown)", 95]
]}

Measured values drawn from patent US9193728B2 for this set.
